System: NBL01-1116 patient-derived neuroblastoma cells
Experiment: RealTime-Glo MT cell viability assay
Type: cell-based, Human
Conditions: Homo sapiens, Neuroblastoma cell; NBL01-1116, 72 hours
measurement type: pIC50
Please note pIC50 is a logarithmic value: minus log10 of concentration in mol/L. Answer with that number alone.

{"columns": ["substance smiles", "study system", "pIC50"],
 "data": [
  ["CN[C@@H](C)C(=O)N[C@H](C(=O)N1CCC[C@H]1C(=O)Nc1sc(-c2ncco2)nc1-c1ccccc1)C1CCCCC1", "NBL01-1116 patient-derived neuroblastoma cells", 4.42]
]}

Moving on to the next compound.
pIC50 lookup needed for "CN[C@@H](C)C(=O)N[C@H](C(=O)N1CCC[C@H]1c1nc(C(=O)c2ccc(F)cc2)cs1)C1CCCCC1" , thanks. 4.44

Where these numbers come from: paper PMC10681007
